Source: ChEMBL document CHEMBL4622864

targetOrSystem: CYP3A4 (Homo sapiens, UniProt P08684)
Sequence (P08684 whole entry): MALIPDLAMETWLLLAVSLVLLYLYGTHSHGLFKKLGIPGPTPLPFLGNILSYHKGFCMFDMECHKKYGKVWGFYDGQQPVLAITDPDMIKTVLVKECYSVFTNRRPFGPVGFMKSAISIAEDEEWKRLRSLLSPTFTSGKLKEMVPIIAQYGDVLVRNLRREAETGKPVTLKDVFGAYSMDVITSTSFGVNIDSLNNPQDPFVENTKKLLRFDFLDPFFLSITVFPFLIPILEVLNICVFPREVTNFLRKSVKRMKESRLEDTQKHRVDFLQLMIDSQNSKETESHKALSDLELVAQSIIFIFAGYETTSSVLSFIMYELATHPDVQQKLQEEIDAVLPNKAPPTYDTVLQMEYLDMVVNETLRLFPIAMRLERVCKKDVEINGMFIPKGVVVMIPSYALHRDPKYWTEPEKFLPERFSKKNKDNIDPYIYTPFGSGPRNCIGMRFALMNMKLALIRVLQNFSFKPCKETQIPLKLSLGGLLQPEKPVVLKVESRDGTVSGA
assayText: Inhibition of CYP3A4 (unknown origin) at 10 uM relative to control
Assay type: ADME
readoutLabel: inhibition at 10 µM (%)
Give just the number in %; leave the unit off.

## Input Quick one: inhibition at 10 µM of C[C@@H](Oc1cncc(-c2cnn(C3CCNCC3)c2)c1)c1c(Cl)ccc(F)c1Cl ?
## Output 76

* * *

assayText: Metabolic stability in rat microsomes assessed as parent compound remaining measured after 30 mins
Format: ADME, Microsome
testSettings: read-out: Stability
readoutLabel: remaining at 0.5 h (%)
Write down the numeric answer in % and omit the unit.

## Input What value of measured remaining at 0.5 h is listed for C[C@@H](Oc1cncc(-c2cnn(C3CCNCC3)c2)c1)c1c(Cl)ccc(F)c1Cl ?
## Output 85

* * *

targetOrSystem: CYP2C9 (Homo sapiens, UniProt P11712)
Sequence (P11712 whole entry): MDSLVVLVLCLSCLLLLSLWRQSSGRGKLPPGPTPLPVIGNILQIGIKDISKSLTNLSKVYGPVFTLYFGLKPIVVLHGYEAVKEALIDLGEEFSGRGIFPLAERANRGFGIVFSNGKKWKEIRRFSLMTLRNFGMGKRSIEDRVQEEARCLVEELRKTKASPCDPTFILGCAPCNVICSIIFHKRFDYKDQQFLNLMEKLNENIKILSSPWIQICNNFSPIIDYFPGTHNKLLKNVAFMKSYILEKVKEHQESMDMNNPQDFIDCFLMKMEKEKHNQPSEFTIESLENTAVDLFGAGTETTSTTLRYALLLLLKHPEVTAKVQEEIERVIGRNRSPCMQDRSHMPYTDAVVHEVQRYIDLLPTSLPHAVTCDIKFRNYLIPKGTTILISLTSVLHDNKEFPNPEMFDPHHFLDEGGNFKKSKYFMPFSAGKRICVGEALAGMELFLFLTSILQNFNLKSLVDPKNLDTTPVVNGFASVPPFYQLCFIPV
assayText: Inhibition of CYP2C9 (unknown origin) at 10 uM relative to control
Format: ADME
readoutLabel: inhibition at 10 µM

## Input Give CYP2C9 (Homo sapiens, UniProt P11712) inhibition at 10 µM for C[C@@H](Oc1cncc(-c2cnn(C3CCNCC3)c2)c1)c1c(Cl)ccc(F)c1Cl
## Output 79%

* * *

assayText: Metabolic stability in human microsomes assessed as parent compound remaining measured after 30 mins
Type: ADME, Microsome
testSettings: read-out: Stability
readoutLabel: remaining at 0.5 h (%)
Answer in %, number only, no unit symbol.

## Input What does the data say about its remaining at 0.5 h? Entry: C[C@@H](Oc1cncc(-c2cnn(C3CCNCC3)c2)c1)c1c(Cl)ccc(F)c1Cl
## Output 94
